Data provenance: PubChem BioAssay (NCI)

Test system: SK-OV-3 ovarian
Test: NCI-60 one-dose screen, 48 h (100 = growth as untreated, 0 = no growth, -100 = all killed)
Conditions: 10 µM unless noted
About 83,000 compounds went through this panel and 20% of them were active in at least one assay; those are over-represented in the sample as a whole.
# growth listing for each entry below
Readout Name: growth (%)

- CCN1CCCC(N2c3ccccc3Sc3ccccc32)C1 (centres undefined): 111
- OCC(O)COc1ccc(Cl)cc1Cl (centres undefined): 91.7
- CCOC(=O)/C(C#N)=C\c1c[nH]c2ccccc12: 96.2
- Cc1ccc(NC(=O)c2ccccc2Cl)cc1: 124
- CCC(/C=C\C(C)=O)CC: 110
- CC(C)C(=O)OCCOc1ccc(C(C)(C)C)cc1: 108
- COc1cccc2c1Cc1ccccc1-2: 115
- Cc1ccccc1NC(=O)Oc1ccc(Cl)cc1C(=O)c1ccccc1: 95.4
- CC1(C)CC(=O)C=C(N)C1: 145
- CCOC(=O)C(CCC#N)(CCC#N)C(=O)OCC: 108
- C=CCC(OC(C)=O)c1ccc(OC)c(OC)c1 (centres undefined): 126
- CCC(=O)Oc1ccc2ccccc2c1: 98.9
- O=S(=O)(c1ccc(NC(=S)NCc2cccnc2)cc1)N1CCCCC1: 79.3
- C[n+]1cc2cc3c(cc2c2ccccc21)OCO3: 46

###

System: MCF7 breast
Assay: NCI-60 one-dose screen, 48 h (100 = growth as untreated, 0 = no growth, -100 = all killed)
Settings: 10 µM unless noted
Compounds without any hit were thinned out: in the full panel of roughly 83,000, 20% have a hit.
# growth listing for each entry below
Readout Name: growth (%)

* CC1(C)OC(=O)CC1=O | 99.3
* CC(C)C(C)(C)C(=O)C(C)(C)C(C)(C)C | 97
* O=S(Cc1ccccc1)/C(=C/NC(=S)Nc1cc(Cl)ccc1Cl)c1ccccc1 (configuration not stated) | 96.9
* C=CCOc1ccc(Cl)cc1Cl | 105
* CN(C)c1ccc(/C=C/C(=O)c2ccc(NC(N)=O)cc2)cc1 | 58.4
* CCCCOC(=O)c1ccccc1O | 98
* CC(C)(N)CO[C@H]1C[C@H]2CC[C@@]1(C)C2(C)C | 92.5
* COc1ccc(C(=O)/C(=N/Nc2ccccc2)c2ccc(OC)cc2)cc1 | 95.2
* CC12CCC3c4ccc(O)cc4CCC3C1CCC2=O (configuration not stated) | 128
* Cc1ccc(O)c(N)c1 | 99.9
* C=CCC(O)C=C (configuration not stated) | 98.2
* CC(=O)[C@@]1(O)CC[C@H]2[C@@H]3CC[C@@H]4CC(=O)CC[C@]4(C)[C@H]3[C@@H](O)C[C@@]21C | 93.6

###

Tested on: HCT-15 colon
Assay: NCI-60 one-dose screen, 48 h (100 = growth as untreated, 0 = no growth, -100 = all killed)
Conditions: 10 µM unless noted
This is part of a sample that, as a whole, favours compounds with a hit. Of some 83,000 tested, about 20% had one in any assay.
Readout Name: growth (%)

• CC(C)c1ncc([N+](=O)[O-])n1C = 101
• CC(O)C(F)(F)C(F)(F)C(F)(F)F (configuration not stated) = 88.2
• O=C(O)c1c[nH]c2ccccc2c1=O = 110
• N#CC1(O)CCCCC1 = 99.6
• Cn1c(=O)c2[nH]c(CC(=O)O)nc2n(C)c1=O = 107
• CC1(C)CCC(C)(C)NC(=S)N1 = 98.7
• O=S(=O)(O)c1cccc2cccnc12 = 117

###

Test system: UACC-257 melanoma
Test: NCI-60 one-dose screen, 48 h
Conditions: 10 µM unless noted
This is part of a sample that, as a whole, favours compounds with a hit. Of some 83,000 tested, about 20% had one in any assay. Activity calls are given as the source filed them. How the source made its calls: active means growth percent below 10; inactive means the rest.
Outcome codes: 1 (active), 0 (inactive)

- CC1=CC(=Nc2ccc(N(C)C)cc2)C=C(C)C1=O: 0
- CCOC(=O)/C(C)=C\c1ccc(OC)c(OC)c1: 0
- CCCCCC#CC(=O)O: 0
- CCN(Cc1ccc(Cl)c(Cl)c1)c1ccc2nc(N)nc(N)c2c1C: 1
- CC(=O)c1cc(O)ccc1O: 0
- O=C(NCc1ccccc1)c1cccc([N+](=O)[O-])c1: 0
- NCCCN1CCCC1=O: 0
- CC(=O)NNC(=S)N/C=C/c1c(C)ccc([N+](=O)[O-])c1[N+](=O)[O-]: 0
- COc1ccc(Br)c(C=O)c1: 0
- Cc1ccc(C)c(CN(C)C)c1O: 0
- COC1C(=O)CCC2(CO2)C1(O)C1(C)OC1CCC(C)C (stereo unspecified): 0
- OC(CBr)CCBr (stereo unspecified): 0
- O=C(Nc1ccc([N+](=O)[O-])cc1)C(=O)Nc1ccc([N+](=O)[O-])cc1: 0
- C[C@H](CCC[C@H](C)OS(=O)(=O)c1ccccc1)OS(=O)(=O)c1ccccc1: 0
- COC(=O)c1cccc([N+](=O)[O-])c1: 0
- COc1ccc(C2CCCCC2=O)cc1 (stereo unspecified): 0
- Cc1ccc[n+](CCC(N)=O)c1: 0
- CN(C)c1ccc(O)c2c1CC1CC3C(N(C)C)C(=O)C(C(N)=O)=C(O)C3(O)C(=O)C1=C2O (stereo unspecified): 0
- ClCc1cccc2c(CCl)cccc12: 0
- CCNc1ncnc2[nH]ncc12: 0
- O=C(O)Cc1ccccn1: 0
- O=[N+]([O-])c1ccc2[nH]c(=S)n(/C=C(/c3ccc(Cl)cc3Cl)S(=O)(=O)Cc3ccc(Cl)cc3Cl)c2c1: 0
- C=C1CC2(OC1=O)C(=O)N(C)c1ccc(I)cc12 (stereo unspecified): 1
- N#C/C(=C\NC(=S)N=Nc1c(O)[nH]c2ccccc12)c1nc2ccccc2s1: 0
- O=C1C=C[C@H](O)[C@@]2(CO)O[C@@H]12: 0
- O=C1C=Cc2ccccc2/C1=C/c1[nH]c(=O)[nH]c1O: 1

###

System: A549/ATCC NSCLC
Test: NCI-60 one-dose screen, 48 h (100 = growth as untreated, 0 = no growth, -100 = all killed)
Settings: 10 µM unless noted
This is part of a sample that, as a whole, favours compounds with a hit. Of some 83,000 tested, about 20% had one in any assay.
Readout Name: growth (%)

* C=CCC(OC(C)=O)c1ccc(OC)c(OC)c1 (centres undefined) | 104
* CCCNS(=O)(=O)c1ccc(Cl)cc1 | 94.5
* O=S(=O)(O)c1cccc2cccnc12 | 106
* CCCOCc1cn[nH]n1 | 96
* CC(=O)N(C(C)=O)c1ccc(C)cc1 | 104
* O=C1C=CC(=O)C2=C1CCCC2 | 95.8
* COC(=O)Cc1cc(COC(C)=O)ccc1C | 99.1
* NS(=O)(=O)c1cc(=O)[nH]c(=O)[nH]1 | 115
* Oc1cccnc1CN1CCCC1 | 98.2
* CCOC(=O)CNC | 87.8
* O=C(CCCl)OCCOc1ccccc1 | 102
* CC(=O)NNC(=S)N/C=C/c1c(C)ccc([N+](=O)[O-])c1[N+](=O)[O-] | 102
* c1ccc(-c2ccc3ccccc3c2)cc1 | 84.2
* Clc1ccc(C(SCc2ccccc2)SCc2ccccc2)cc1 | 97.6

###

System: U251 CNS
Assay: NCI-60 one-dose screen, 48 h (100 = growth as untreated, 0 = no growth, -100 = all killed)
Conditions: 10 µM unless noted
About 83,000 compounds went through this panel and 20% of them were active in at least one assay; those are over-represented in the sample as a whole.
Readout Name: growth (%)

- CCCCNc1ccc(-c2ccc(NCCCC)cc2)cc1: 64.2
- COc1cc(OC)c2cc(C(=O)c3ccc(C#N)cc3)c(=O)oc2c1: 105
- CN(C(=S)S(=O)(=O)C12CC3CC(CC(C3)C1)C2)c1ccccc1: 108
- C=C1SC(=Nc2c(C)cccc2C)N(c2nc(Cl)nc(Cl)n2)C12CCCCC2: 102
- ClCc1cccc2c(CCl)cccc12: 56.6
- CCOC(=O)C(CCC#N)(CCC#N)C(=O)OCC: 102

###

Tested on: CCRF-CEM leukemia
Assay: NCI-60 one-dose screen, 48 h (100 = growth as untreated, 0 = no growth, -100 = all killed)
Conditions: 10 µM unless noted
Protocol: Growth inhibition of the CCRF-CEM human tumor cell line is measured as a screen for anti-cancer activity. Cells are grown in 96 well plates and exposed to the test compound for 48 hours. Compounds are tested at a single concentration, which is 10^-5 M for most compounds. The reported endpoint is percent growth (GI% or GIPRCNT), where numbers from 0 - 100% represent growth inhibition, and numbers from -100% - 0 represent cell death. For example, a value of 40 represents 60% growth inhibition. […]
Compounds without any hit were thinned out: in the full panel of roughly 83,000, 20% have a hit. The source made the active and inactive calls. The calls were made as follows: active = growth percent below 10; inactive = the rest.
Readout Name: growth

* COc1cccc(C(=O)O)c1OC | 107% (inactive)
* C1=NCCc2ccccc21 | 96.8% (inactive)
* COC(=O)c1ccc([N+](=O)[O-])c(C)c1 | 4.56% (active)
* CS(=O)(=O)c1ccc(/C=C\C(=O)O)cc1 | 101% (inactive)
* CCNc1ccc2ccccc2c1N=Nc1ccc(N=Nc2ccccc2)cc1 | 95.8% (inactive)
* S=C(Sc1ccc(Cl)cc1)Sc1ccc(Cl)cc1 | -15.8% (active)
* COc1ccc(Nc2cc(Cl)ccc2C(=O)O)cn1 | 96.3% (inactive)
* O=S(=O)(OCCOS(=O)(=O)c1ccccc1)c1ccccc1 | 92.9% (inactive)
* CCCC1OC(c2ccco2)OCC1CC (configuration not stated) | 93% (inactive)
* CCN(C(=O)Nc1ccccc1Cl)c1ccccc1 | 110% (inactive)
* Nc1cc2c(cc1Cl)C(=O)c1ccccc1C2=O | 80.5% (inactive)
* O=c1cc(C(F)(F)F)[nH]c(=S)[nH]1 | 119% (inactive)
* O=S(=O)(O)C(C(I)I)S(=O)(=O)O | 105% (inactive)
* Cc1cc(C)cc(OCC(=O)O)c1 | 132% (inactive)
* Cn1c(=O)c2[nH]c(CCCCC(=O)O)nc2n(C)c1=O | 75.6% (inactive)
* O=C(CCl)Nc1ccccc1SCc1cc(Cl)cc2c1OCOC2 | -27.5% (active)
* CC(=O)C1C(=O)C(=O)N(c2cccc([N+](=O)[O-])c2)C1=O (configuration not stated) | 106% (inactive)
* CCOC(=O)c1cc(Cl)c(O)c(Cl)c1 | 90.8% (inactive)
* NC(CSSCC(N)C(=O)O)C(=O)O (configuration not stated) | -10.1% (active)
* Cc1ccc(/C=N/NC(N)=S)s1 | 100% (inactive)
* CC1(C)C2CCC1(C)C1(C2)OCCS1 (configuration not stated) | 110% (inactive)
* CCN(CC)CCCC(C)NC(=S)N/N=C(\C)c1ccccn1 (configuration not stated) | 29.8% (inactive)
* O=C(CC(CC(=O)c1ccccc1)c1ccccn1)c1ccccc1 | 103% (inactive)
* CCCCCCCCNC(=O)C(C)C | 102% (inactive)
* C=CC(C)(C)n1cc(C2=C(O)C(=O)C(c3cn(C(C)(C)C=C)c4ccccc34)=C(O)C2=O)c2ccccc21 | 78.5% (inactive)
* O=C(OC1CCCC1)c1ccccc1Cl | 107% (inactive)
* CC(C)Sc1ncnc2nc[nH]c12 | 111% (inactive)
